Listed here: items and their measured kon.
target: T1, wild type human CD47 (Acro Biosystems, cat. no. CD7-H5227) (human, UniProt Q08722 19-139); assay: SPR, IgG captured, CD47 in flow; exp 3;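 further: biacore T200 SPR with antibodies taken from supernatants of transfected HEK293 cells, C33G mutein avoiding IgV homodimers for monovalent affinity, Kd derived from association and dissociation rate constants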
T1 construct: Bought protein used as SPR analyte; also called Human CD47 wt; wild-type CD47
T1 sequence (Q08722 19-139 limits assumed): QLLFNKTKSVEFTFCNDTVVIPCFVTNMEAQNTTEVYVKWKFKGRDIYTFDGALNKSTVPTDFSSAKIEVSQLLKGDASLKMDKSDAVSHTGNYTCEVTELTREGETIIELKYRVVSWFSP
Just the number in M⁻¹ s⁻¹, nothing appended.

Record excerpt, results attached:
108VH5.M16 / 108VL1.M5 (antibody, human IgG4 S228P, kappa, V domains shown, Full-length IgG4 (S228P), kappa; also called VH5.M16 VL1.M5) VH: EVQLVQSGAEVKKPGASVKVSCKASGYTFTHHWMHWVRQAPGQGLEWMGMIDASDGETRYAQKFQGRVTMTRDTSTSTVYMELSSLRSEDTAVYYCARLGRYYFDYWGQGTLVTVSS VL: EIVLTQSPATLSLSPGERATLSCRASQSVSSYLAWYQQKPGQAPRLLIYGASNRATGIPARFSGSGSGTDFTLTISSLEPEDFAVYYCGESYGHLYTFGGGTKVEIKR	720000
chimeric antibody 108C10A6 (antibody, V domains shown, Chimeric antibody with mouse variable domains; captured through human Fc; also called VH / VL) VH: QMQLQQSGPQLVRPGASVKISCKTSGYSFTHHWIHWMKQRPGQGLEWIGMIDPSDSETRLSQKFKDKATLTVDASSSTAYMQLNSPTSEDSALYFCARLGRYYFDYWGQGTTLTVSS VL: NIVMTQSPRSMSMSVGERVTLSCKASENVGTYISWYQQKPDQSPKLLIYGASNRYTGVPDRFTGSGSGTDFTLTISTVQAEDLADYHCGESYGHLYTFGGGTKLEIK	1.6e+06
108VH5.M18 / 108VL1.M5 (antibody, human IgG4 S228P, kappa, V domains shown, Full-length IgG4 (S228P), kappa; also called VH5.M18 VL1.M5) VH: EVQLVQSGAEVKKPGASVKVSCKASGYTFTHHWMHWVRQAPGQGLEWMGMIDASESETRYAQKFQGRVTMTRDTSTSTVYMELSSLRSEDTAVYYCARLGRYYFDYWGQGTLVTVSS VL: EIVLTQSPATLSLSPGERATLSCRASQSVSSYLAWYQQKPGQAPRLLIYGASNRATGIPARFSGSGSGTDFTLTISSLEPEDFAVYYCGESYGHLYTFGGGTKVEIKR	170000

Next, consider the following binder.
Exercise: Can you share its kon? I mean this binder: 108VH4.M4-VL1.M1 (antibody, V domains shown, also called original humanized 108C10A6 antibody) VH: EVQLVQSGAEVKKPGSSVKVSCKASGYSFTHHWIHWVRQAPGQGLEWMGMIDASDSETRLSQKFKDRVTITADKSTSTAYMELSSLRSEDTAVYYCARLGRYYFDYWGQGTTVTVSS VL: EIVLTQSPATLSLSPGERATLSCRASENVGTYISWYQQKPGQAPRLLIYGASNRYTGIPARFSGSGSGTDFTLTISSLEPEDFAVYYCGESYGHLYTFGGGTKVEIK
Key: 1e+06
